# experimental system: UniProt P03956
# Sequence (P03956 100-469): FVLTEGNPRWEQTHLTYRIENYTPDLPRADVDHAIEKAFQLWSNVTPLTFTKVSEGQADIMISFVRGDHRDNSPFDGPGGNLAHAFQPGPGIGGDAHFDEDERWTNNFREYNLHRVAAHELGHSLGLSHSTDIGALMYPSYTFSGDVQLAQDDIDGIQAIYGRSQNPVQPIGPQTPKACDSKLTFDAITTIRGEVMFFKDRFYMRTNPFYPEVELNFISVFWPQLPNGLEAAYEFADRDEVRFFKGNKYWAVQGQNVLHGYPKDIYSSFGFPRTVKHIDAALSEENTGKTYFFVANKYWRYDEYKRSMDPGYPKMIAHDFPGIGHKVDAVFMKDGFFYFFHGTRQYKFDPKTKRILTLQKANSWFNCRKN
# assay remarks: MMP-1 inhibition (thiopeptide or fluorescent peptide substrate)
Property: log10 of IC50; scope: individual molecules
Reminder: these figures are log10 of reported IC50, in µM before transformation.

Some entries whose results are on file:
>  <molecule>
CC#CCOc1ccc([S+]([O-])C(C(=O)NO)C2CCCCC2)cc1 (centres unmarked)

>  <value>
0.18

$$$$
>  <molecule>
CC#CCOc1ccc([S+]([O-])C(CCCCNC(=O)CNC(=O)Cc2ccc(Cl)c(Cl)c2)C(=O)NO)cc1 (centres unmarked)

>  <value>
0.66

$$$$
>  <molecule>
CC#CCOc1ccc([S+]([O-])C(CCCCNC(=O)c2ccc3ccccc3n2)C(=O)NO)cc1 (mixture of isomers)

>  <value>
0.52

$$$$
>  <molecule>
CC#CCOc1ccc(SC(CCCCCC)C(=O)NO)cc1 (centres unmarked)

>  <value>
1.18

$$$$
>  <molecule>
CC#CCOc1ccc([S+]([O-])C(CCCCNC(=O)CNC(=O)c2cccn2C)C(=O)NO)cc1 (centres unmarked)

>  <value>
0.75

$$$$

Reported log10 of IC50 ( CC#CCOc1ccc([S+]([O-])C(CCCCNC(=O)CNC(=O)C2c3ccccc3Oc3ccccc32)C(=O)NO)cc1 (centres unmarked) ) = 0.53

So, CC#CCOc1ccc([S+]([O-])C(CCCCNC(=O)C(c2ccccc2)c2ccccc2)C(=O)NO)cc1 (centres unmarked) ? Its log10 of IC50 was 0.52

The reported value for "CC#CCOc1ccc([S@+]([O-])[C@@H](CCCCCC)C(=O)NO)cc1" in terms of log10 of IC50 is 0.48

log10 of IC50 in this record for "CC#CCOc1ccc(OCCC(=O)NO)cc1" : 1.00

The reported log10 of IC50 of the molecule CC#CCOc1ccc(S(=O)(=O)C(C)(Cc2cccnc2)C(=O)NO)cc1 (centres unmarked) was 0.15

Field log10 of IC50 (entry "CC#CCOc1ccc(CCCC(=O)NO)cc1" ) reads 1.00

---

# experimental system: TNF-α converting enzyme (TACE) (Homo sapiens)
# Sequence (P78536 215-824): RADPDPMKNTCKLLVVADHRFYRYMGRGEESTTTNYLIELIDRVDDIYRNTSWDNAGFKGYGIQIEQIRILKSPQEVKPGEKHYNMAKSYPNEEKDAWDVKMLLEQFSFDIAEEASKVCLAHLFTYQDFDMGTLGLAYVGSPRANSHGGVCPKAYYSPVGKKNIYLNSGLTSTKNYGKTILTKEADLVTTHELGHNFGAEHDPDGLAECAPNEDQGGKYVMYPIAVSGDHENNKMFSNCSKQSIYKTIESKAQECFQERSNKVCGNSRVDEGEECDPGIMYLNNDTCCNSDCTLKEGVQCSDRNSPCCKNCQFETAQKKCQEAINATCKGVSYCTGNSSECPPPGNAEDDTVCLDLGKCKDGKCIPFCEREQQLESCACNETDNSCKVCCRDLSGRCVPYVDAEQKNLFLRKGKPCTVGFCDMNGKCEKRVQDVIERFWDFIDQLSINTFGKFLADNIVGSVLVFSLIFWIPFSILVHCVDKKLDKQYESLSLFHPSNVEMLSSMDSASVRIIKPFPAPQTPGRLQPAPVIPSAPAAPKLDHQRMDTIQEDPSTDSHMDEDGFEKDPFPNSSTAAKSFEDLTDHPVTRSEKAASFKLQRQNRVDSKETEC
# assay remarks: Test procedure for measuring TACE inhibition (fluorescent peptidyl substrate)
# Assay type: biochemical
# applied conditions: Table 1
quantity kind: IC50 (nM)
Answer in nM, number only, no unit symbol.

Please review the following examples before continuing.
>  <compound>
CC#CCOc1ccc(SC(CCCCNC(=O)CNC(=O)c2ccc3ccccc3n2)C(=O)NO)cc1 (stereo not drawn) [Example 44]

>  <experimental system>
TNF-α converting enzyme (TACE) (Homo sapiens)

>  <IC50 / nM>
32.1

$$$$
>  <compound>
CC#CCOc1ccc(SC(CCCCNC(=O)c2ccccc2CCc2ccccc2)C(=O)NO)cc1 (stereo not drawn) [Example 15]

>  <experimental system>
TNF-α converting enzyme (TACE) (Homo sapiens)

>  <IC50 / nM>
138

$$$$
>  <compound>
CC#CCOc1ccc(SC(CCCCNC(=O)c2cnc3ccccc3c2)C(=O)NO)cc1 (stereo not drawn) [Example 17]

>  <experimental system>
TNF-α converting enzyme (TACE) (Homo sapiens)

>  <IC50 / nM>
43.7

$$$$
>  <compound>
CC#CCOc1ccc(SC(CCCCNC(=O)C(c2ccccc2)c2ccccc2)C(=O)NO)cc1 (stereo not drawn) [Example 20]

>  <experimental system>
TNF-α converting enzyme (TACE) (Homo sapiens)

>  <IC50 / nM>
88.6

$$$$
>  <compound>
CC#CCOc1ccc([S+]([O-])C(CCCCNC(=O)C2c3ccccc3Oc3ccccc32)C(=O)NO)cc1 (stereo not drawn) [Example 29]

>  <experimental system>
TNF-α converting enzyme (TACE) (Homo sapiens)

>  <IC50 / nM>
18.9

$$$$

Now look at this entry.
Measured IC50 of CC#CCOc1ccc([S+]([O-])C(CCCCNC(=O)CNC(=O)c2cccn2C)C(=O)NO)cc1 (stereo not drawn) [Example 61] : 22.5
